# target system: T1, IFN-αWA (human, UniProt P05015 24-189)
# T1 construct: also called IFN-α16; alpha WA
# method: ProteOn, one antigen concentration
Items are presented alongside their recorded Kd.
Hey, just the number and the unit after it is fine.

- binder: "IFWM3318 (antibody, V domains shown, VH IFWH591, VL IFWL1038; converted mAb; also called IFWB3053) VH: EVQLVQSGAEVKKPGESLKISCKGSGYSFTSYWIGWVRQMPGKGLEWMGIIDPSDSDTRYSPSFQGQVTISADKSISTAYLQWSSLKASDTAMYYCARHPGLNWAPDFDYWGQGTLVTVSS VL: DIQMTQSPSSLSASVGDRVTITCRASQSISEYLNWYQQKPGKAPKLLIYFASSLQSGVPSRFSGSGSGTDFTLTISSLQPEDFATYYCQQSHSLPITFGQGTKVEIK"
  Kd: "0.091 nM"

Moving on to another binder below.
Q: Please indicate Kd recorded for IFWM3349 (antibody, V domains shown, VH IFWH624, VL IFWL1007; converted mAb; also called IFWB3084) VH: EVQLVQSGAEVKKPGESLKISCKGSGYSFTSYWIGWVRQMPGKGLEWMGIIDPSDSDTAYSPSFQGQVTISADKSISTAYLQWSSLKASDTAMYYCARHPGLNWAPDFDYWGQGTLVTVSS VL: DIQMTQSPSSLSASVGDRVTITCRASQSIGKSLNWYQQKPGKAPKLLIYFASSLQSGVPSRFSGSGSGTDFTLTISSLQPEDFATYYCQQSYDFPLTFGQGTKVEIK
A: 0.102 nM
